Numbers sourced from ChEMBL document CHEMBL2424555.

Biological target: Epidermal growth factor receptor (Homo sapiens, UniProt P00533)
Sequence (P00533 whole entry, the tested form may be a part): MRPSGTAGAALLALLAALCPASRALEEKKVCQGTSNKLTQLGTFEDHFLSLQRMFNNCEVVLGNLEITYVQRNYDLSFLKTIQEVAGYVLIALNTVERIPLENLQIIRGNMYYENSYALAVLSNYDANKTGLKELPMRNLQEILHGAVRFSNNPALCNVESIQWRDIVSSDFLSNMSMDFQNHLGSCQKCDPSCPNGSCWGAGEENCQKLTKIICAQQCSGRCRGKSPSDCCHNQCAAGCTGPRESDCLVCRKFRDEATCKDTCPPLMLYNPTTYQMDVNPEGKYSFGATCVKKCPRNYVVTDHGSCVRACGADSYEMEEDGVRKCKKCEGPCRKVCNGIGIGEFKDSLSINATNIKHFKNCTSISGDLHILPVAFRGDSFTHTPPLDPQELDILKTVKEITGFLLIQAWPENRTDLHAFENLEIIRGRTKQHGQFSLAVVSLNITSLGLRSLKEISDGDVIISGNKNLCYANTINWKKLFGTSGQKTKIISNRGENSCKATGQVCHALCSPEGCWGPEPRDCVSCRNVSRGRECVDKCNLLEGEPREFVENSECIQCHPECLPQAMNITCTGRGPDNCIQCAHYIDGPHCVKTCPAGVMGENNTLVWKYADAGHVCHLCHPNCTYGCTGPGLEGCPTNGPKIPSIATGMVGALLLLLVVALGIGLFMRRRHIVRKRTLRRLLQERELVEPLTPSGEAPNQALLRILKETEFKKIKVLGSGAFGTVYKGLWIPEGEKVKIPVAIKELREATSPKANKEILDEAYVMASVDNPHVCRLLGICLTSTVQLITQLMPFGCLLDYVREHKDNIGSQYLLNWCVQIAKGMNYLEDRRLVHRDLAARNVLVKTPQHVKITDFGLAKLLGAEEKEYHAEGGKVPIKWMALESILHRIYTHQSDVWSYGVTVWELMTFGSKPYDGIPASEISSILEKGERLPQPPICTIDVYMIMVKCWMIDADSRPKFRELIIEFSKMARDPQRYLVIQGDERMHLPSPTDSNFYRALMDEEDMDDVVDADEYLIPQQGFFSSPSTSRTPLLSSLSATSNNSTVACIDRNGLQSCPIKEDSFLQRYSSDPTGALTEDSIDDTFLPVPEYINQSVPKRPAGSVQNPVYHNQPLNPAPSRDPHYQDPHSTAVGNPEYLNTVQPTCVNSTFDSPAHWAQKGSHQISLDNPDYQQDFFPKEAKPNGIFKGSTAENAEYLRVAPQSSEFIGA
Experiment: Inhibition of recombinant EGFR kinase cytoplasmic domain (unknown origin) expressed in baculovirus expression vector-infected insect sf9 cells assessed as level of autophosphorylation after 10 mins by DELFIA/time-resolved fluorometry
The molecules listed here are annotated with their IC50.
Observable: IC50

[
  {
    "Sample Smiles": "Clc1cccc(Nc2ncnc3ccc(NCc4cccc(Br)n4)cc23)c1",
    "Study Target": "Epidermal growth factor receptor (Homo sapiens, UniProt P00533)",
    "Result": "4.1 µM"
  },
  {
    "Sample Smiles": "Clc1cccc(Nc2ncnc3ccc(NCc4ccc(Br)s4)cc23)c1",
    "Study Target": "Epidermal growth factor receptor (Homo sapiens, UniProt P00533)",
    "Result": "1.5 µM"
  },
  {
    "Sample Smiles": "CSCCCNc1ccc2ncnc(Nc3cccc(Cl)c3)c2c1",
    "Study Target": "Epidermal growth factor receptor (Homo sapiens, UniProt P00533)",
    "Result": "5.1 µM"
  },
  {
    "Sample Smiles": "O=C(/C=C/c1cccnc1)Nc1ccc2ncnc(Nc3cccc(Cl)c3)c2c1",
    "Study Target": "Epidermal growth factor receptor (Homo sapiens, UniProt P00533)",
    "Result": "4.7 µM"
  }
]
